# test_description: Rodent Brain Penetration Study
# details: in vivo; Wistar rat male, P.O, 15 mg/kg; read-out: Steady State Brain Penetration (Cb/Cp)
assay_readout: Kp
Please reply with the value in numeric form only.

State the recorded Kp for this entry: Cl.c1cncc(OCC2CC3CC3N2)c1 (stereo not shown) [Example 1, hydrochloride]
3.8

----------
# test_description: Rodent Pharmacokinetic Study
# details: Wistar, in vivo, po; Wister rat male, P.O, 5 mg/kg
assay_readout: half-life (h)
Give just the numeric value; h need not be written.

Find the recorded half-life belonging to Cl.Cl.Clc1ccc(OCC2CC3CC3N2)cn1 (stereo not drawn) [Example 5] and report it.
3.34

For Cl.Cl.Clc1ncccc1OCC1CC2CC2N1 (stereo not drawn) [Example 4] , what is its reported half-life?
2.15

Record request: half-life value, item Cl.Cl.Clc1cncc(OCC2CC3CC3N2)c1 (stereo not drawn) [Example 7]
1.07

----------
# target_or_test_system: Human or Rat Nicotinic Acetylcholine α4β2 receptor (UniProt P09483+P12390)
# test_description: Binding assay for Human or Rat Nicotinic Acetylcholine α4β2 receptor ([3H] Cytisine)
# details: [3H] Cytisine 2.5 nM; rat brain frontal cortex or recombinant human cDNA expressed in CHO cells; read-out: Ki
Counter-ions that a name gives are not always drawn.
Field: Ki. Provide a value for each of the molecules that follow.
Enter your answer as a number in µM; do not include the unit.

What value of Ki has been recorded for this entry: c1cncc(OCC2CCC3CC3N2)c1 (stereo not drawn) [Example 19, hydrochloride]
0.0082

// returns reported Ki for input CN1C(COc2cccnc2F)CC2CC21 (stereo not drawn) [Example 10, tartrate]
0.0319

Can you share its Ki? I mean this molecule: Fc1ncccc1OCC1CC2CC2N1 (stereo not drawn) [Example 9, tartrate]
0.0174

Requested field: Ki. Item: CN1C(COc2cccnc2Cl)CC2CC21 (stereo not drawn)
0.0281

Which Ki value is on record for CN1C(COc2cccnc2)CC2CC21 (stereo not drawn) ?
0.0055

For Brc1cncc(OCC2CC3CC3N2)c1 (stereo not drawn) [Example 8, tartrate] , what is its reported Ki?
0.0064

----------
# test_description: Rodent Pharmacokinetic Study
# details: Wistar, in vivo, po; Wister rat male, P.O, 15 mg/kg
assay_readout: AUC(0-t) (ng·h/mL)
# number only, unit ng·h/mL dropped from output

I'd like to know its AUC(0-t). The molecule in question is Cl.c1cncc(OCC2CC3CC3N2)c1 (stereo not shown) [Example 1]
10900

----------
# target_or_test_system: Human or Rat Nicotinic Acetylcholine α4β2 receptor (UniProt P09483+P12390)
# test_description: Binding assay for Human or Rat Nicotinic Acetylcholine α4β2 receptor ([3H] Cytisine)
# details: [3H] Cytisine 2.5 nM; rat brain frontal cortex or recombinant human cDNA expressed in CHO cells
pKi: −log10 of the molar value.
Could you label it 1 if measured pKi is 9 or higher, and -1 otherwise?

Dear colleague, could you confirm whether Cc1ccc(OCC2CC3CC3N2C)cn1 (centres unmarked) has pKi at or above 9?
1

Can Cl.c1cncc(OCC2CC3CC3N2)c1 (centres unmarked) [Example 1, hydrochloride] be said to have pKi at or above 9?
-1

Given Cc1ccc(OCC2CC3CC3N2)cn1 (centres unmarked) , state whether its pKi is at least 9.
-1

Is it the case that Cl.Cl.Clc1cncc(OCC2CC3CC3N2)c1 (centres unmarked) [Example 7, dihydrochloride] has pKi reaching or exceeding 9?
1
